Measured MFI @ 10 ug/ml of individual entries
Molecular target: T1, B7-H3 on B7-H3-expressing CHO cells (Genescript) (UniProt Q5ZPR3 29-534, limits assumed)
T1 construct: whole, on cells; also called CHO-K1/B7-H3; MFI B7-H3
T1 sequence (looked up): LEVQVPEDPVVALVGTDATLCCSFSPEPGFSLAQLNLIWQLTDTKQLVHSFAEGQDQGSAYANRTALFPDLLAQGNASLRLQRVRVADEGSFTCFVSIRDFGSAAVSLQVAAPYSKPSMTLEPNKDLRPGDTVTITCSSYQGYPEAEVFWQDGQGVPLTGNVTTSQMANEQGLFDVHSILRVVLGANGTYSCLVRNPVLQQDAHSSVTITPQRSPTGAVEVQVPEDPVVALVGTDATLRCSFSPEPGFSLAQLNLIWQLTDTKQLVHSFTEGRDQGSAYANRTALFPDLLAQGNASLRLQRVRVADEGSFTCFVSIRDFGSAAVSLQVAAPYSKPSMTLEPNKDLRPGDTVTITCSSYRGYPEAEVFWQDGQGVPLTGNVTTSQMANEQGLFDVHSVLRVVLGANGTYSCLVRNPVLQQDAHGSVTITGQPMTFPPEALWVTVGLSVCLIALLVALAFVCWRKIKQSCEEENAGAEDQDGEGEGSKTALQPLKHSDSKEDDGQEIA
Experiment: flow cytometry, B7-H3-expressing CHO cells, 10 ug/ml
Just the number please, in MFI, no unit attached.

As a guide, the following entries are already answered.
40633p1.2.D1 (scFv, V domains shown, Tested as scFv-Fc (Expi293 supernatant)) VH: EVQLLESGGGLVQPGGSLRLSCAASGFTFDVYGMSWVRQAPGKGLEWVSAINWNGGSTYYADSVKGRFTISRDNSENTLYLQMNSLRAEDTAVYYCAKEKWKHFIYYGMDVWGQGTTVTVSS VL: QSVLTQPASASGTPGQTVSISCSGSSSNIDSNTANWYQQLPGTAPKLLIYSNNQRPSGVPDRFSGSKSDTSASLAISGLQSEDEGDYYCSAWDDNLNGWLFGGGTKLTVL ... 14100
40579p1.H7 (scFv, V domains shown, Tested as scFv-Fc (Expi293 supernatant)) VH: EVQLLESGGDLVQPGGSLRLSCAASGFNFSSYWMSWVRQAPGKGLEWVSGISISYGGNAYYADSVKGRFTVSRDNSKNTLYLQMNSLRAEDTAVYYCGRDRSPYQYRSMDVWGQGTTVTVSS VL: EIVLTQSPGTLSLSPGERATLSCRASQSIRSDLAWYQQKPGQAPRLLIYGASSRATGIPARFSGSGSGTEFTLTISSLQSEDFAVYYCQQYNNWPPLTFGGGTKVEIK ... 74600

Proceeding to the next binder to report its MFI @ 10 ug/ml.
Recorded MFI @ 10 ug/ml for 40633p1.1.D11 (scFv, V domains shown, Tested as scFv-Fc (Expi293 supernatant)) VH: EVQLLESGGGLVQPGGSLRLSCAASGFTFRSYAMSWVRQAPGKGLEWVAYIGSSGGTTYYADSVKGRFTISRDNSKNTLYLQMNSLRAEDTAVYYCVKESYYYMDVWGQGTTVTVSS VL: QSVLTQPPSASGTPGQRVTISCSATISNIDINRVSWYQQLPGTAPKLLIFNSQRPSGVPDRFSGSKSGTSASLAISGLQSEDEADYYCATWDDSLNSWVFGGGTKLTVL , please?
78600

Sourced from patent US20260008852A1
